# system-tested: Tyrosine-protein phosphatase YopH (Yersinia enterocolitica) (UniProt P15273)
# Sequence (P15273 whole entry, looked up): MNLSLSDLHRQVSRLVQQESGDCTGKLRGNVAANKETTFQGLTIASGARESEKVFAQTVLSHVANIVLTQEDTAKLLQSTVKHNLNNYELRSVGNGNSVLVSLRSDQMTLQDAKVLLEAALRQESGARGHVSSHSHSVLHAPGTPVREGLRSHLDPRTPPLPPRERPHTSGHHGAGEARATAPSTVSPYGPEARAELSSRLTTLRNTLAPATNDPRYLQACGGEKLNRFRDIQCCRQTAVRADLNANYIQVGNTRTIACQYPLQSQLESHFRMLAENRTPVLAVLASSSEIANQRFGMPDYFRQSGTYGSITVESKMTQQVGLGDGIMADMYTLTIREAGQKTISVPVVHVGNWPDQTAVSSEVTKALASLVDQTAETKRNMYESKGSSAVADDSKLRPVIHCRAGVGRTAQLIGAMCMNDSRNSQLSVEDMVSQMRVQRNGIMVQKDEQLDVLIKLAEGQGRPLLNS
pIC50: −log10 of the molar value.
Recorded measurements of pIC50, one per entry

>  <compound>
O=C(O)C(=O)c1ccccc1

>  <system-tested>
Tyrosine-protein phosphatase YopH (Yersinia enterocolitica) (UniProt P15273)

>  <pIC50>
2.57

$$$$
>  <compound>
O=C(O)C(=O)c1c[nH]c2ccccc12

>  <system-tested>
Tyrosine-protein phosphatase YopH (Yersinia enterocolitica) (UniProt P15273)

>  <pIC50>
3.41

$$$$
>  <compound>
COc1ccc(C(=O)C(=O)O)cc1

>  <system-tested>
Tyrosine-protein phosphatase YopH (Yersinia enterocolitica) (UniProt P15273)

>  <pIC50>
3.82

$$$$
>  <compound>
O=C(O)C(=O)c1c(F)c(F)c(F)c(F)c1F

>  <system-tested>
Tyrosine-protein phosphatase YopH (Yersinia enterocolitica) (UniProt P15273)

>  <pIC50>
3.10

$$$$
